Assay: Stability in simulated gastric fluid (SGF)
Assay type: in vitro ADME
Conditions: SGF with pepsin pH 1.2, 37° C., 60 min
Decision: SGF (% remain, 60 min) compared against 90%; not below it gives Criterion met, below it gives Criterion not met.

Q. Please tell me: is the compound `CC(=O)[C@H]1CC[C@H]2[C@@H]3CC[C@H]4C[C@](C)(OC(=O)CNCC(=O)OC(C)(C)C)CC[C@]4(C)[C@H]3CC[C@]12C` at or over 90% in terms of SGF (% remain, 60 min)?
A. Criterion met

Q. Please tell me: is the compound `CC(=O)[C@H]1CC[C@H]2[C@@H]3CC[C@H]4C[C@](C)(OC(=O)COC(=O)CN5CCOCC5)CC[C@]4(C)[C@H]3CC[C@]12C` at or over 90% in terms of SGF (% remain, 60 min)?
A. Criterion met

Q. Please tell me: is the compound `CC(=O)[C@H]1CC[C@H]2[C@@H]3CC[C@H]4C[C@](C)(O)CC[C@]4(C)[C@H]3CC[C@]12C` at or over 90% in terms of SGF (% remain, 60 min)?
A. Criterion met

Q. Please tell me: is the compound `CC(=O)[C@H]1CC[C@H]2[C@@H]3CC[C@H]4C[C@](C)(OC(=O)CN5CCN(C)CC5)CC[C@]4(C)[C@H]3CC[C@]12C` at or over 90% in terms of SGF (% remain, 60 min)?
A. Criterion not met

Q. Please tell me: is the compound `CC(=O)[C@H]1CC[C@H]2[C@@H]3CC[C@H]4C[C@](C)(OCOC(=O)CN5CCOCC5)CC[C@]4(C)[C@H]3CC[C@]12C` at or over 90% in terms of SGF (% remain, 60 min)?
A. Criterion not met

Q. Please tell me: is the compound `CC(=O)[C@H]1CC[C@H]2[C@@H]3CC[C@H]4C[C@](C)(OC(=O)CNC(C)(C)C(=O)O)CC[C@]4(C)[C@H]3CC[C@]12C` at or over 90% in terms of SGF (% remain, 60 min)?
A. Criterion not met

----------
Assay: in vitro
Conditions: rat plasma, 2 μg/mL, 37° C.
Reported property: Rat plasma t90 (min)
Field: numeric (min). Do not append units.

Q. I am curious: what Rat plasma t90 value has been reported for `CC(=O)[C@H]1CC[C@H]2[C@@H]3CC[C@H]4C[C@](C)(OC(=O)COC(=O)CN5CCOCC5)CC[C@]4(C)[C@H]3CC[C@]12C` ?
A. 1.4

Q. I am curious: what Rat plasma t90 value has been reported for `CC(=O)[C@H]1CC[C@H]2[C@@H]3CC[C@H]4C[C@](C)(OC(=O)COC(=O)C(C)(C)N)CC[C@]4(C)[C@H]3CC[C@]12C` ?
A. 8.5

Q. I am curious: what Rat plasma t90 value has been reported for `CC(=O)[C@H]1CC[C@H]2[C@@H]3CC[C@H]4C[C@](C)(OC(=O)CO)CC[C@]4(C)[C@H]3CC[C@]12C` ?
A. 82

----------
For each of the compounds below, state its Dog plasma t90.
Test: Dog plasma stability
Format: in vitro ADME
Conditions: dog plasma, 2 μg/mL, 37° C.
Field: numeric (min). Do not append units.

Q. I am curious: what Dog plasma t90 value has been reported for CC(=O)[C@H]1CC[C@H]2[C@@H]3CC[C@H]4C[C@](C)(O)CC[C@]4(C)[C@H]3CC[C@]12C [ganaxolone, Ganaxolone] ?
A. 564

Q. I am curious: what Dog plasma t90 value has been reported for CC(=O)[C@H]1CC[C@H]2[C@@H]3CC[C@H]4C[C@](C)(OC(=O)CNC(C)(C)C(=O)O)CC[C@]4(C)[C@H]3CC[C@]12C [Compound 120] ?
A. 88

Q. I am curious: what Dog plasma t90 value has been reported for CC(=O)[C@H]1CC[C@H]2[C@@H]3CC[C@H]4C[C@](C)(OC(=O)COC(=O)C(C)(C)N)CC[C@]4(C)[C@H]3CC[C@]12C [Compound 218] ?
A. 783

Q. I am curious: what Dog plasma t90 value has been reported for CC(=O)[C@H]1CC[C@H]2[C@@H]3CC[C@H]4C[C@](C)(OC(=O)COC(=O)C(C)(C)OC(=O)CN(CCO)CCO)CC[C@]4(C)[C@H]3CC[C@]12C [Compound 228] ?
A. 3

Q. I am curious: what Dog plasma t90 value has been reported for CC(=O)[C@H]1CC[C@H]2[C@@H]3CC[C@H]4C[C@](C)(OC(=O)CN)CC[C@]4(C)[C@H]3CC[C@]12C [Compound 111] ?
A. 243

----------
Assay: in vitro
Format: in vitro ADME, human
Conditions: human liver microsomes, no NADPH, 1 h, compound 0.5 μM
Reported property: Human Liver Microsomal Stability no NADPH, % remain 1 h (%)
Field: numeric (%). Do not append units.

Q. I am curious: what Human Liver Microsomal Stability no NADPH, % remain 1 h value has been reported for `CC(=O)[C@H]1CC[C@H]2[C@@H]3CC[C@H]4C[C@](C)(OC(=O)CNC(=O)CNC(=O)[C@@H](N)C(C)C)CC[C@]4(C)[C@H]3CC[C@]12C` ?
A. 99

Q. I am curious: what Human Liver Microsomal Stability no NADPH, % remain 1 h value has been reported for `CC(=O)[C@H]1CC[C@H]2[C@@H]3CC[C@H]4C[C@](C)(OC(=O)CSC(=N)N)CC[C@]4(C)[C@H]3CC[C@]12C` ?
A. 83.8

Q. I am curious: what Human Liver Microsomal Stability no NADPH, % remain 1 h value has been reported for `CC(=O)[C@H]1CC[C@H]2[C@@H]3CC[C@H]4C[C@](C)(OC(=O)COC(=O)OCCN(C)C)CC[C@]4(C)[C@H]3CC[C@]12C` ?
A. 4

Q. I am curious: what Human Liver Microsomal Stability no NADPH, % remain 1 h value has been reported for `CC(=O)[C@H]1CC[C@H]2[C@@H]3CC[C@H]4C[C@](C)(OC(=O)COC(=O)CNC(=O)[C@H](C)N)CC[C@]4(C)[C@H]3CC[C@]12C` ?
A. 80

Q. I am curious: what Human Liver Microsomal Stability no NADPH, % remain 1 h value has been reported for `COCCN(C)CC(=O)O[C@]1(C)CC[C@@]2(C)[C@@H](CC[C@@H]3[C@@H]2CC[C@]2(C)[C@@H](C(C)=O)CC[C@@H]32)C1` ?
A. 98

----------
Assay: in vitro
Type: in vitro ADME, human
Details: human, microsomes
Decision: microsomal CLint compared against 40 µL/min/mg; not below it gives true, below it gives false.

Q. Please tell me: is the molecule `CC(=O)[C@H]1CC[C@H]2[C@@H]3CC[C@H]4C[C@](C)(OC(=O)CSCCN)CC[C@]4(C)[C@H]3CC[C@]12C` at or over 40 µL/min/mg in terms of microsomal CLint?
A. false

Q. Please tell me: is the molecule `CC(=O)[C@H]1CC[C@H]2[C@@H]3CC[C@H]4C[C@](C)(OC(=O)CNC(=O)C(C)(C)O)CC[C@]4(C)[C@H]3CC[C@]12C` at or over 40 µL/min/mg in terms of microsomal CLint?
A. false

Q. Please tell me: is the molecule `CC(=O)[C@H]1CC[C@H]2[C@@H]3CC[C@H]4C[C@](C)(OC(=O)CNC(C)(C)COC(=O)C(C)C)CC[C@]4(C)[C@H]3CC[C@]12C` at or over 40 µL/min/mg in terms of microsomal CLint?
A. true

Q. Please tell me: is the molecule `CC(=O)[C@H]1CC[C@H]2[C@@H]3CC[C@H]4C[C@](C)(OC(=O)CN(CCO)CCO)CC[C@]4(C)[C@H]3CC[C@]12C` at or over 40 µL/min/mg in terms of microsomal CLint?
A. true

Q. Please tell me: is the molecule `CC(=O)[C@H]1CC[C@H]2[C@@H]3CC[C@H]4C[C@](C)(OC(=O)COC(=O)C(C)(C)O)CC[C@]4(C)[C@H]3CC[C@]12C` at or over 40 µL/min/mg in terms of microsomal CLint?
A. true

----------
For each of the molecules below, state its SIF (% remain, 60 min).
Assay: Stability in simulated intestinal fluid (SIF)
Format: in vitro ADME
Conditions: SIF with pancreatin pH 6.8, 37° C., 60 min
Field: numeric (%). Do not append units.

Q. I am curious: what SIF (% remain, 60 min) value has been reported for CCOC(=O)CNCC(=O)O[C@]1(C)CC[C@@]2(C)[C@@H](CC[C@@H]3[C@@H]2CC[C@]2(C)[C@@H](C(C)=O)CC[C@@H]32)C1 [Compound 103] ?
A. 75.9

Q. I am curious: what SIF (% remain, 60 min) value has been reported for CC(=O)[C@H]1CC[C@H]2[C@@H]3CC[C@H]4C[C@](C)(OC(=O)CNC(C)(C)C(=O)O)CC[C@]4(C)[C@H]3CC[C@]12C [Compound 120] ?
A. 74

Q. I am curious: what SIF (% remain, 60 min) value has been reported for CC(=O)[C@H]1CC[C@H]2[C@@H]3CC[C@H]4C[C@](C)(OC(=O)CN5CCN(C)CC5)CC[C@]4(C)[C@H]3CC[C@]12C [Compound 102] ?
A. 74.7
